# experimentalTarget: UniProt P10586
# Sequence (P10586 whole entry): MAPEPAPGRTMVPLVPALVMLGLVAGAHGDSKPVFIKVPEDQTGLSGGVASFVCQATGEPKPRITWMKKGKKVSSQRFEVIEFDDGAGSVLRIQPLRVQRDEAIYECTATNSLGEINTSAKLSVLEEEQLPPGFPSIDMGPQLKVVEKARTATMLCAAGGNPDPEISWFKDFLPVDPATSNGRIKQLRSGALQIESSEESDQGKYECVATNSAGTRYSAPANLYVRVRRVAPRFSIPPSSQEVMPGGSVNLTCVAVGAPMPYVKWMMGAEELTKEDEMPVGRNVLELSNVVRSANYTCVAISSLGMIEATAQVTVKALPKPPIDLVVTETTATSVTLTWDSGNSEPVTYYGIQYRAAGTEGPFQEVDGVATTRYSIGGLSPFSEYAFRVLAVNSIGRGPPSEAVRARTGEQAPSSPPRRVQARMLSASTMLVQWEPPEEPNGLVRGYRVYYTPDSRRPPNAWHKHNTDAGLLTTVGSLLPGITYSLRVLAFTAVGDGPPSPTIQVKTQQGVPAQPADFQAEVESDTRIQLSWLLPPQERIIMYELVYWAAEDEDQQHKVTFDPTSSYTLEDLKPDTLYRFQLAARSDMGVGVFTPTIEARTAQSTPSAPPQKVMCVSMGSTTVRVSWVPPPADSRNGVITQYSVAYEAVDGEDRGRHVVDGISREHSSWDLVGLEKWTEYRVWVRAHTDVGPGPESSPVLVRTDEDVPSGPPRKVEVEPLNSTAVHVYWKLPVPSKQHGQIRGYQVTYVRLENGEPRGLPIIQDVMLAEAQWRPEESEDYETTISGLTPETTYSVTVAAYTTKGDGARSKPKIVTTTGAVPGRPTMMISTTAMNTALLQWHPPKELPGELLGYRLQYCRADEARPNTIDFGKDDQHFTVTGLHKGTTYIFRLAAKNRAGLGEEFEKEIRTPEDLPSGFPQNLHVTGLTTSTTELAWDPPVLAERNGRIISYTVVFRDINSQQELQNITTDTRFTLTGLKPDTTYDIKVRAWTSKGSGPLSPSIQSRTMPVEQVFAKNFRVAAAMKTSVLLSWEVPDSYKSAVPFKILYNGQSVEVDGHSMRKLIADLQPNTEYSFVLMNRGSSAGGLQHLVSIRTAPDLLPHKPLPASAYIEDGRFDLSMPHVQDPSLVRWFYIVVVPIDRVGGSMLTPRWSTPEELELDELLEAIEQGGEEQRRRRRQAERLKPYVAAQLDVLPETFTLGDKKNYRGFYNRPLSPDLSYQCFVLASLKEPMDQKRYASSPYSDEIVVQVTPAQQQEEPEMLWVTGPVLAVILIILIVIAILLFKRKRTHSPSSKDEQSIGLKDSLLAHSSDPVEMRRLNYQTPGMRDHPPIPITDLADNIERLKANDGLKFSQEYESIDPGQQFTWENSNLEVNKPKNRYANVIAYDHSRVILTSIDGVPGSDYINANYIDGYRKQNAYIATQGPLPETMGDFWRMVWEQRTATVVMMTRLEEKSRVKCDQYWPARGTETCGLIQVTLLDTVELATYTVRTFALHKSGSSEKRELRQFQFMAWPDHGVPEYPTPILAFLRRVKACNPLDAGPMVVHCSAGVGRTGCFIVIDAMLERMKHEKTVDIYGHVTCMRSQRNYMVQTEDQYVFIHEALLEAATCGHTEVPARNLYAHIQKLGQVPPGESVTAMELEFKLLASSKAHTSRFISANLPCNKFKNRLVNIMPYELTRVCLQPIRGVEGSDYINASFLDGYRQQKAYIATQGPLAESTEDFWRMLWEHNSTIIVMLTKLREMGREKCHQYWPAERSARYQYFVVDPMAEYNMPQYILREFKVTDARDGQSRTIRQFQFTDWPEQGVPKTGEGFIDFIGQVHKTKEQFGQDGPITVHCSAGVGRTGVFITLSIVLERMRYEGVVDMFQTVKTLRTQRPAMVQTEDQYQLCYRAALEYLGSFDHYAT
observationType: IC50

Value lookup for IC50; key = `Cn1c(-c2ccccc2)c(-c2cn(CCC(=O)Nc3ccc(-c4ccccc4)cc3)nn2)c2cc(C(=O)O)c(O)cc21`
> 50 µM

###

# experimentalTarget: Tyrosine-protein phosphatase non-receptor type 11 (Homo sapiens, UniProt Q06124)
# Sequence (Q06124 whole entry): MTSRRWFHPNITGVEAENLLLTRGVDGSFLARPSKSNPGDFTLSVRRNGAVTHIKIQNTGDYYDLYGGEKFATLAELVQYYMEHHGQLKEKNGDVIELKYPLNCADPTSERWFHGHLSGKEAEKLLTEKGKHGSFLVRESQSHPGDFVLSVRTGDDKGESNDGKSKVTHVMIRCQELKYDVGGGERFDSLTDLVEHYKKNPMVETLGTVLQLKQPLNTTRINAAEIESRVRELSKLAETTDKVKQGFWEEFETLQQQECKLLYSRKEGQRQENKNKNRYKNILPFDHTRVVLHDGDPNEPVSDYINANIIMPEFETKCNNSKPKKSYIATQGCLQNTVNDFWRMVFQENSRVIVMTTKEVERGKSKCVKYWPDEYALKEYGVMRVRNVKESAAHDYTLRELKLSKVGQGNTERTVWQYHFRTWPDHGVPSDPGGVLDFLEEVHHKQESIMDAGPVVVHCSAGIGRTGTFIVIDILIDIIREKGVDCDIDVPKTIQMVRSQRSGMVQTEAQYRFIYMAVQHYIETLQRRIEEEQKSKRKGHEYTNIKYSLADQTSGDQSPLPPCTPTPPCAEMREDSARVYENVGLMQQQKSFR
observationType: pIC50
The scale used: pIC50 is minus the common logarithm of the concentration in molar units.

>  <chemSmiles>
Cn1c(-c2ccccc2)c(-c2cn(CCCCC(=O)N3c4ccccc4Sc4ccccc43)nn2)c2cc(C(=O)O)c(O)cc21

>  <observationType>
pIC50

>  <reportedMeasurement>
5.10

$$$$
>  <chemSmiles>
Cn1c(-c2ccccc2)c(-c2cn(CC(=O)Nc3ccc(-c4ccccc4)cc3)nn2)c2cc(C(=O)O)c(O)cc21

>  <observationType>
pIC50

>  <reportedMeasurement>
5.03

$$$$
>  <chemSmiles>
C#Cc1c(-c2ccccc2)n(C)c2cc(O)c(C(=O)O)cc12

>  <observationType>
pIC50

>  <reportedMeasurement>
3.67

$$$$
>  <chemSmiles>
Cn1c(-c2ccccc2)c(-c2cn(CCC(=O)Nc3ccccc3)nn2)c2cc(C(=O)O)c(O)cc21

>  <observationType>
pIC50

>  <reportedMeasurement>
4.07

$$$$
>  <chemSmiles>
Cn1c(-c2ccccc2)c(-c2cn(CC(=O)Nc3nc4ccccc4s3)nn2)c2cc(C(=O)O)c(O)cc21

>  <observationType>
pIC50

>  <reportedMeasurement>
5.04

$$$$

From here, focus on the item given below.
Value lookup for pIC50; key = `Cn1c(-c2ccccc2)c(-c2cn(CCCC(=O)Nc3ccc(-c4ccccc4)cc3)nn2)c2cc(C(=O)O)c(O)cc21`
4.92
